Measured MIC accompanies every entry in the list below.
Test system: Candida albicans ATCC 90028
measurementLabel: MIC

[[record]]
smilesinput = "NC(=O)[C@H](Cc1c[nH]c2ccccc12)NC(=O)[C@H](Cc1c[nH]c2ccccc12)NC(=O)[C@H](Cc1c[nH]c2ccccc12)NC(=O)[C@H](CCCN=C(N)N)NC(=O)[C@H](CCCN=C(N)N)NC(=O)[C@@H](N)CCCN=C(N)N"
measurementlabel = "MIC"
endpointresult = "≥ 100 µM"

[[record]]
smilesinput = "CC[C@H](C)[C@H](N)C(=O)N[C@@H](CC(N)=O)C(=O)N[C@@H](Cc1c[nH]c2ccccc12)C(=O)N[C@@H](CC(C)C)C(=O)N[C@@H](CCCCN)C(=O)N[C@H](C(=O)N[C@@H](CCCCN)C(=O)N[C@@H](CCCCN)C(=O)N[C@@H](CCCCN)C(=O)N[C@H](C(=O)N[C@@H](C)C(=O)NCC(=O)N[C@@H](CCSC)C(=O)N[C@@H](CC(C)C)C(N)=O)C(C)C)[C@@H](C)CC"
measurementlabel = "MIC"
endpointresult = "≥ 38.1 µM"

[[record]]
smilesinput = "CC[C@H](C)[C@H](N)C(=O)N[C@@H](CC(C)C)C(=O)NCC(=O)N[C@@H](C)C(=O)N[C@H](C(=O)N[C@@H](CC(C)C)C(=O)N1CCC[C@H]1C(=O)N[C@@H](CC(C)C)C(=O)N[C@H](C(=O)N[C@@H](CO)C(=O)NCC(=O)N[C@@H](CC(C)C)C(=O)N[C@@H](CC(C)C)C(=O)N[C@@H](CO)C(=O)N[C@@H](CC(N)=O)C(=O)N[C@@H](CCCCN)C(=O)N[C@@H](CC(C)C)C(N)=O)C(C)C)[C@@H](C)CC"
measurementlabel = "MIC"
endpointresult = "≥ 64 µM"

[[record]]
smilesinput = "CC[C@H](C)[C@H](N)C(=O)N[C@@H](Cc1ccccc1)C(=O)NCC(=O)N[C@H](C(=O)N[C@H](C(=O)N[C@@H](CC(C)C)C(=O)NCC(=O)N[C@@H](Cc1ccccc1)C(=O)N[C@@H](CC(C)C)C(=O)N[C@@H](CCCCN)C(=O)NCC(=O)N[C@@H](CC(C)C)C(N)=O)[C@@H](C)CC)[C@@H](C)O"
measurementlabel = "MIC"
endpointresult = "≥ 100 µM"

